# Test system: primary rat mixed cortical cells
# assay-protocol: In vitro myelination assay (MBP positive myelin strands, fold myelin pixels above background)
# Assay type: cell-based
# conditions-used: Rattus norvegicus, 10.0 μM compound; read-out: Fold myelin pixels above background relative to baseline of no added compound
measure: fold induction at 10 µM

Here are 5 compounds together with their reported answers.
>>> readout_value("Cc1cc(Nc2ncn(-c3cccc(F)c3)n2)cc(N2CC3(C2)CN(C(C)C)C3)c1")
"≤ 1"
>>> readout_value("CCN(CC)C(=O)C1CN(c2cc(C)cc(Nc3ncn(-c4cc(F)cc(F)c4)n3)c2)C1")
"10 to 100"
>>> readout_value("Cc1cc(Nc2ncn(-c3cc(F)cc(F)c3)n2)cc(N2CCN(CCOC(C)C)CC2)c1")
"≤ 1"
>>> readout_value("Cc1cc(NCCOC2CCC2)cc(Nc2ncn(-c3cc(F)cc(F)c3)n2)c1")
"1 to 10"
>>> readout_value("CCN(CC)CCN1CCN(c2cc(C)cc(Nc3ncn(-c4cc(F)cc(F)c4)n3)c2)CC1")
"≤ 1"

Now for a further compound.
Task item: Identify fold induction at 10 µM associated with the compound Cc1cc(Nc2ncn(-c3cc(F)cc(F)c3)n2)cc(N2CCN(C3CCCN(C)C3)CC2)c1 (stereo not shown)
Reply: ≤ 1
